Values from the NIST ThermoML archive (doi:10.1016/j.fluid.2010.12.003)

- Experimental Details: xn = mol fraction of the nth substance listed
- Measurement Conditions: 352 K; 101 kPa; Fluid (supercritical or subcritical phases); Taylor dispersion method; x1 = 0
Recorded Endpoint: binary diffusion coefficient (m2/s)

a. Oc1cc(O)c2c(c1)O[C@H](c1ccc(O)c(O)c1)[C@H](O)C2 + O
b. O=C(O)c1cc(O)c(O)c(O)c1 [3,4,5-trihydroxybenzoic acid] + O
Exercise: // select label with min value of measured binary diffusion coefficient from [ a , b ] In your reply, give the label of the chosen option.
Solution: a

###

- Experimental Details: xn = mol fraction of the nth substance listed
- Measurement Conditions: 332 K; 101 kPa; Fluid (supercritical or subcritical phases); Taylor dispersion method; x1 = 0
Recorded Endpoint: binary diffusion coefficient (m2/s)

>>> readout_value("Oc1cc(O)c2c(c1)O[C@H](c1ccc(O)c(O)c1)[C@@H](O)C2 [(+)-catechin] + O")
"3.76e-10"
>>> readout_value("COc1cc(-c2[o+]c3cc(O)cc(O[C@@H]4O[C@H](CO)[C@@H](O)[C@H](O)[C@H]4O)c3cc2O[C@@H]2O[C@H](CO)[C@@H](O)[C@H](O)[C@H]2O)cc(OC)c1O.[Cl-] [malvidin-3,5-diglucoside chloride] + O")
"3.6e-10"
>>> readout_value("O=C(O)c1cc(O)c(O)c(O)c1 [3,4,5-trihydroxybenzoic acid] + O")
"3.3e-10"

###

- Experimental Details: xn = mol fraction of the nth substance listed
- Measurement Conditions: 312 K; 101 kPa; Fluid (supercritical or subcritical phases); Taylor dispersion method; x1 = 0
Recorded Endpoint: binary diffusion coefficient (m2/s)

>>> readout_value("Oc1cc(O)c2c(c1)O[C@H](c1ccc(O)c(O)c1)[C@@H](O)C2 [(+)-catechin] + O")
"3.07e-10"
>>> readout_value("COc1cc(-c2[o+]c3cc(O)cc(O[C@@H]4O[C@H](CO)[C@@H](O)[C@H](O)[C@H]4O)c3cc2O[C@@H]2O[C@H](CO)[C@@H](O)[C@H](O)[C@H]2O)cc(OC)c1O.[Cl-] [malvidin-3,5-diglucoside chloride] + O")
"2.71e-10"
>>> readout_value("COc1cc(-c2[o+]c3cc(O)cc(O)c3cc2O[C@@H]2O[C@H](CO)[C@@H](O)[C@H](O)[C@H]2O)ccc1O.[Cl-] + O")
"2.67e-10"
>>> readout_value("Oc1cc(O)c2c(c1)O[C@H](c1ccc(O)c(O)c1)[C@H](O)C2 + O")
"2.66e-11"
>>> readout_value("O=C(O)c1cc(O)c(O)c(O)c1 [3,4,5-trihydroxybenzoic acid] + O")
"2.87e-10"

1. O=c1c(O[C@@H]2O[C@H]([C@H](O)CO)[C@H](O)[C@H]2O)c(-c2ccc(O)c(O)c2)oc2cc(O)cc(O)c12 [isoquercitrin] + O
2. O=C(O)c1ccc(O)c(O)c1 [3,4-dihydroxybenzoic acid] + O
Exercise: // select label with min value of measured binary diffusion coefficient from [ 1 , 2 ] In your reply, give the label of the chosen option.
Solution: 1
(1: 2.19e-10 m2/s, 2: 3.2e-10 m2/s)

###

- Experimental Details: xn = mol fraction of the nth substance listed
- Measurement Conditions: 392 K; 101 kPa; Fluid (supercritical or subcritical phases); Taylor dispersion method; x1 = 0
Recorded Endpoint: binary diffusion coefficient (m2/s)

P. COc1cc(-c2[o+]c3cc(O)cc(O)c3cc2O[C@@H]2O[C@H](CO)[C@@H](O)[C@H](O)[C@H]2O)ccc1O.[Cl-] + O
Q. Oc1cc(O)c2c(c1)O[C@H](c1ccc(O)c(O)c1)[C@H](O)C2 + O
Exercise: // select label with min value of measured binary diffusion coefficient from [ P , Q ] In your reply, give the label of the chosen option.
Solution: Q
(Q: 5.19e-11 m2/s, P: 6.18e-10 m2/s)

###

- Experimental Details: xn = mol fraction of the nth substance listed
- Measurement Conditions: 298 K; 101 kPa; Fluid (supercritical or subcritical phases); Taylor dispersion method; x1 = 0
Recorded Endpoint: binary diffusion coefficient (m2/s)

>>> readout_value("Oc1cc(O)c2c(c1)O[C@H](c1ccc(O)c(O)c1)[C@H](O)C2 + O")
"1.97e-11"
>>> readout_value("O=C(O)c1cc(O)c(O)c(O)c1 [3,4,5-trihydroxybenzoic acid] + O")
"2.5e-10"
>>> readout_value("Oc1cc(O)c2c(c1)O[C@H](c1ccc(O)c(O)c1)[C@@H](O)C2 [(+)-catechin] + O")
"2.33e-10"
>>> readout_value("COc1cc(-c2[o+]c3cc(O)cc(O)c3cc2O[C@@H]2O[C@H](CO)[C@@H](O)[C@H](O)[C@H]2O)ccc1O.[Cl-] + O")
"2.19e-10"
>>> readout_value("COc1cc(-c2[o+]c3cc(O)cc(O[C@@H]4O[C@H](CO)[C@@H](O)[C@H](O)[C@H]4O)c3cc2O[C@@H]2O[C@H](CO)[C@@H](O)[C@H](O)[C@H]2O)cc(OC)c1O.[Cl-] [malvidin-3,5-diglucoside chloride] + O")
"2.16e-10"

1. O=c1c(O[C@@H]2O[C@H]([C@H](O)CO)[C@H](O)[C@H]2O)c(-c2ccc(O)c(O)c2)oc2cc(O)cc(O)c12 [isoquercitrin] + O
2. O=C(O)c1ccc(O)c(O)c1 [3,4-dihydroxybenzoic acid] + O
Exercise: // select label with min value of measured binary diffusion coefficient from [ 1 , 2 ] In your reply, give the label of the chosen option.
Solution: 1

###

- Experimental Details: xn = mol fraction of the nth substance listed
- Measurement Conditions: 372 K; 101 kPa; Fluid (supercritical or subcritical phases); Taylor dispersion method; x1 = 0
Recorded Endpoint: binary diffusion coefficient (m2/s)

>>> readout_value("COc1cc(-c2[o+]c3cc(O)cc(O)c3cc2O[C@@H]2O[C@H](CO)[C@@H](O)[C@H](O)[C@H]2O)ccc1O.[Cl-] + O")
"5.39e-10"
>>> readout_value("O=C(O)c1ccc(O)c(O)c1 [3,4-dihydroxybenzoic acid] + O")
"5.12e-10"
>>> readout_value("O=c1c(O[C@@H]2O[C@H]([C@H](O)CO)[C@H](O)[C@H]2O)c(-c2ccc(O)c(O)c2)oc2cc(O)cc(O)c12 [isoquercitrin] + O")
"3.51e-10"
>>> readout_value("COc1cc(-c2[o+]c3cc(O)cc(O[C@@H]4O[C@H](CO)[C@@H](O)[C@H](O)[C@H]4O)c3cc2O[C@@H]2O[C@H](CO)[C@@H](O)[C@H](O)[C@H]2O)cc(OC)c1O.[Cl-] [malvidin-3,5-diglucoside chloride] + O")
"5.15e-10"

P. Oc1cc(O)c2c(c1)O[C@H](c1ccc(O)c(O)c1)[C@H](O)C2 + O
Q. Oc1cc(O)c2c(c1)O[C@H](c1ccc(O)c(O)c1)[C@@H](O)C2 [(+)-catechin] + O
Exercise: // select label with min value of measured binary diffusion coefficient from [ P , Q ] In your reply, give the label of the chosen option.
Solution: P

###

- Experimental Details: xn = mol fraction of the nth substance listed
- Measurement Conditions: 332 K; 101 kPa; Fluid (supercritical or subcritical phases); Taylor dispersion method; x1 = 0
Recorded Endpoint: binary diffusion coefficient (m2/s)

Worked examples follow.
>>> readout_value("COc1cc(-c2[o+]c3cc(O)cc(O)c3cc2O[C@@H]2O[C@H](CO)[C@@H](O)[C@H](O)[C@H]2O)ccc1O.[Cl-] + O")
"3.65e-10"
>>> readout_value("O=c1c(O[C@@H]2O[C@H]([C@H](O)CO)[C@H](O)[C@H]2O)c(-c2ccc(O)c(O)c2)oc2cc(O)cc(O)c12 [isoquercitrin] + O")
"2.77e-10"

a. O=C(O)c1ccc(O)c(O)c1 [3,4-dihydroxybenzoic acid] + O
b. Oc1cc(O)c2c(c1)O[C@H](c1ccc(O)c(O)c1)[C@H](O)C2 + O
Exercise: // select label with min value of measured binary diffusion coefficient from [ a , b ] In your reply, give the label of the chosen option.
Solution: b

###

- Experimental Details: xn = mol fraction of the nth substance listed
- Measurement Conditions: 352 K; 101 kPa; Fluid (supercritical or subcritical phases); Taylor dispersion method; x1 = 0
Recorded Endpoint: binary diffusion coefficient (m2/s)

>>> readout_value("Oc1cc(O)c2c(c1)O[C@H](c1ccc(O)c(O)c1)[C@@H](O)C2 [(+)-catechin] + O")
"4.05e-10"
>>> readout_value("O=C(O)c1ccc(O)c(O)c1 [3,4-dihydroxybenzoic acid] + O")
"4.15e-10"
>>> readout_value("COc1cc(-c2[o+]c3cc(O)cc(O[C@@H]4O[C@H](CO)[C@@H](O)[C@H](O)[C@H]4O)c3cc2O[C@@H]2O[C@H](CO)[C@@H](O)[C@H](O)[C@H]2O)cc(OC)c1O.[Cl-] [malvidin-3,5-diglucoside chloride] + O")
"4.41e-10"

I. O=c1c(O[C@@H]2O[C@H]([C@H](O)CO)[C@H](O)[C@H]2O)c(-c2ccc(O)c(O)c2)oc2cc(O)cc(O)c12 [isoquercitrin] + O
II. COc1cc(-c2[o+]c3cc(O)cc(O)c3cc2O[C@@H]2O[C@H](CO)[C@@H](O)[C@H](O)[C@H]2O)ccc1O.[Cl-] + O
Exercise: So which one has the bigger binary diffusion coefficient here, I or II ? In your reply, give the label of the chosen option.
Solution: II
(II: 4.52e-10 m2/s, I: 3.07e-10 m2/s)
